The values you see were collected from patent US5298494A.

Documented Mean O.D. Allogenic across a set of compounds
- Test system: T cell proliferation in mouse spleen cell mixed lymphocyte cultures
- TEST SUMMARY: Mixed Lymphocyte Reaction (MLR) assay
- Format: cell-based, mouse (Balb/c responder, C57B1/6 stimulator)
- CONDITION PARAMETERS: 10 um

{"COMPOUND": "CCCCCCCOC[C@H]1O[C@@]2(OC)COC(C)(C)O[C@H]2[C@@H]1O", "Mean O.D. Allogenic": "0.361 O.D."}
{"COMPOUND": "CCCCCCCO[C@@H]1[C@@H](CO)O[C@@]2(OC)COC(C)(C)O[C@@H]12", "Mean O.D. Allogenic": "0.198 O.D."}
{"COMPOUND": "CCCCCCCCCCCCCCCOCC(O)C1OC2OC(C)(C)OC2C1O (stereo not drawn)", "Mean O.D. Allogenic": "0.197 O.D."}
